Values were extracted from PubChem BioAssay (NCI).

Tested on: SR leukemia
Test: NCI-60 one-dose screen, 48 h (100 = growth as untreated, 0 = no growth, -100 = all killed)
Details: 10 µM unless noted
The panel holds about 83,000 compounds, 20% with a hit somewhere; the sample as a whole holds those more often.
Rule for this label: Fulfilled means growth is less than 20%; Not fulfilled means growth is at least 20%.

Before answering, review these 3 worked examples.
Nc1c(C(=O)Nc2cccc([N+](=O)[O-])c2)sc2nc3c(cc12)C(O)CCC3 (stereo unspecified)
Not fulfilled
Cc1ccc(S(=O)(=O)NCCCNc2nccc(-c3c(-c4ccccc4)nc4sccn34)n2)cc1
Not fulfilled
O=C(CNc1c(Cl)cccc1Cl)Nc1ccc(-c2nc3ccccc3s2)cc1
Fulfilled

Please let me know if CCN1C(=O)N(CC)C2C1NN=c1s/c(=C3\C(=O)N(C4CCCC4)c4ccccc43)c(=O)n12 (stereo unspecified) shows growth below 20%.
Fulfilled

Quick check: does "O=C(Nc1cccc(C(F)(F)F)c1)Nc1ccc(OCc2nnc(-c3ccccc3)o2)c(F)c1" have growth under 20%?
Fulfilled

# check: growth < 20% for "CCN(CC)CCCNc1nc(C)cc(Nc2ccc3nc(C)cc(N)c3c2)n1"
Not fulfilled

Please state whether growth is below 20% for "COc1cc(-c2csc(NC(=O)c3cc(C(F)(F)F)cc(C(F)(F)F)c3)n2)cc(OC)c1OC"
Not fulfilled

Criterion: growth strictly below 20%. Is it met by "COc1cc(-c2cc(/C=C3\CCCCC3=O)[nH]n2)cc(OC)c1OC" ?
Not fulfilled

In plain terms, does "CCn1c(=O)c2c(=O)c3c4c(oc3oc2c2ccccc21)C(=O)c1ccccc1C4=O" come in under 20% for growth?
Not fulfilled

Dear colleague, could you confirm whether growth of "C=C1C(=O)O[C@H]2[C@H]1CC/C(Cn1cc(-c3ccc(N)cc3)nn1)=C\CC[C@@]1(C)O[C@@H]21" falls below 20%? Thanks.
Fulfilled

Dear colleague, could you confirm whether growth of "Cc1ccnc2nc(C(=O)OCC(=O)Nc3ccc(-c4ccccc4)cc3)nn12" falls below 20%? Thanks.
Not fulfilled

* * *

System: SF-539 CNS
Test: NCI-60 one-dose screen, 48 h
Conditions: 10 µM unless noted
Compounds without any hit were thinned out: in the full panel of roughly 83,000, 20% have a hit. The source made the active and inactive calls. How the source made its calls: active means growth percent below 10; inactive means the rest.
Output constraint: value belongs to active, inactive

c1ccn2nnnc2c1
inactive

Please let me know the test result on file for "COC(=O)CCCCN=Cc1c(O)c(O)c(C(C)C)c2cc(C)c(-c3c(C)cc4c(C(C)C)c(O)c(O)c(C=NCCCCC(=O)OC)c4c3O)c(O)c12" .
inactive

Per the assay record, what outcome was assigned to "COc1cc(OC)c(C(=O)/C=C/c2cccc(C(F)(F)F)c2)c(OC)c1" ?
active

State the result this test recorded for Cc1ccc2c(c1)C(C)Cc1c(N(C)C)ncnc1N2C (stereo unspecified) .
inactive

For this compound, state the assay outcome: CN(C)C1CCC(NC2=CC(=O)C=CC2=O)CC1 (stereo unspecified)
inactive

* * *

Tested on: UACC-257 melanoma
Test: NCI-60 one-dose screen, 48 h (100 = growth as untreated, 0 = no growth, -100 = all killed)
Conditions: 10 µM
The panel holds about 83,000 compounds, 20% with a hit somewhere; the sample as a whole holds those more often.
measurement_label: growth (%)
Kindly provide the numeric value in % only, without the unit symbol.

Worked cases, answers included:
N#Cc1ncc(-c2ccc(F)c(F)c2F)c(NC2CCCCCC2)n1
81.5
Nc1c(C(=O)Nc2c(Cl)cccc2Cl)sc2nc3c(cc12)CCCCC3
50.7

Attention now turns to another entry.
compound "COc1cccc(-c2nc3sccn3c2-c2ccnc(NCCNS(=O)(=O)c3ccccc3)n2)c1" , growth observed: 81.4

* * *

Tested on: SF-295 CNS
Assay: NCI-60 one-dose screen, 48 h (100 = growth as untreated, 0 = no growth, -100 = all killed)
Details: 10 µM unless noted
This is part of a sample that, as a whole, favours compounds with a hit. Of some 83,000 tested, about 20% had one in any assay.
Think of 80% as a floor: if growth stands on it or above, it is Met; beneath it, Not met.

Example entries and their recorded answers appear below.
Cc1oc2nc[nH]c(=O)c2c1C(=O)/C=C/c1ccc(Cl)cc1Cl
Met
COc1cccc(-n2cc(-c3nc(Cl)c4ccccc4n3)nn2)c1
Met
CC(=O)c1cc(C(=O)c2ccc3c(c2)Sc2ccccc2N3)c2cc(C)ccn12
Not met

Would you say CCOC(=O)C1=C(C)NC(=O)NC1c1ccc(OCC(=O)N/N=C/c2ccc(Cl)cc2)cc1 (stereo not given) shows growth at minimum 80%?
Met

Textbook exercise: given the entry "O=[N+]([O-])c1c(S(=O)(=O)O)cc2cc(S(=O)(=O)O)ccc2c1[N+](=O)[O-]" , state whether its growth is greater than or equal to 80%.
Met

Does growth meet or surpass 80% for "Cc1ccc2nc(-c3c(CCCO)noc3N)[nH]c(=O)c2c1" ?
Met

Is growth at least 80%? Consider "COc1cc(Cn2c(-c3nonc3N)nc3ccccc32)ccc1C"
Not met

Record "COC(=O)CC/C(C)=N\Nc1ccc([N+](=O)[O-])cc1" ; criterion: growth no lower than 80%. Met?
Not met

Can "COc1cc(Cn2c(SCC(=O)Nc3ccc(Cl)cc3)nc3ccccc3c2=O)cc(OC)c1OC" be said to have growth at or above 80%?
Not met

Assess whether reported growth for "O=C(O)c1ccc(-n2cc(CNc3ccc(C(F)(F)F)cc3)c(-c3ccccc3)n2)cc1" sits at 80% or higher.
Not met

* * *

System: HS 578T breast
Assay: NCI-60 one-dose screen, 48 h (100 = growth as untreated, 0 = no growth, -100 = all killed)
Conditions: 10 µM unless noted
This is part of a sample that, as a whole, favours compounds with a hit. Of some 83,000 tested, about 20% had one in any assay.
measurement_label: growth (%)
Please state the figure in %; there is no need to write the unit.

Example entries begin here.
CCC1CCc2nc3sc(C(=O)Nc4ccccc4F)c(N)c3cc2C1 (stereo not drawn)
70
CC[C@H](C)[C@@H]1NC(=O)[C@H]([C@@H](C)O)NC(=O)C(Cc2ccccc2)NC(=O)[C@@H]2CCCN2C(=O)C(C(C)C)NC(=O)C(Cc2ccccc2)NC(=O)CNC(=O)[C@@H]2CCCN2C1=O (stereo partly drawn)
59.2

The molecule listed as COC1=CC(c2ccc[nH]2)=N/C1=C\c1[nH]c(C)c(CCCn2cc(CCCCCCCCC[C@@H]3Cc4cc(O)ccc4C4CC[C@]5(C)[C@@H](O)CC[C@H]5C43)nn2)c1C (stereo partly drawn) shows growth equal to 55.7

* * *

System: RXF 393 renal
Test: NCI-60 one-dose screen, 48 h (100 = growth as untreated, 0 = no growth, -100 = all killed)
Conditions: 10 µM unless noted
This is part of a sample that, as a whole, favours compounds with a hit. Of some 83,000 tested, about 20% had one in any assay.
growth under 60% gets t, anything at or over 60% gets f.

Example entries and their recorded answers appear below.
C=CCOc1cccc(/C=C/C(=O)c2sc(Nc3cccnc3)nc2C)c1
f
CCOC(=O)[C@H](CSSc1ncnc2cc[nH]c12)NC(=O)[C@@H](C)c1ccc2cc(OC)ccc2c1
t
Cn1c(-c2nonc2NC(=O)c2ccc(F)cc2)nc2ccccc21
f
CC(=O)C1CCC(C)=CC1=O (stereo unspecified)
f
COc1ccc(Cn2c(SC)nc(=O)n(Cc3ccc(Cl)cc3)c2=O)cc1
f
COc1cc2nc(Cl)nc(NCCO)c2cc1OC
f
CCCOC(=O)C1(O)CCCC1
f
COc1cc(-c2csc(NC(=O)c3cc(C(F)(F)F)cc(C(F)(F)F)c3)n2)cc(OC)c1OC
t
CCCCCCCCCCCCNC(=S)N/N=C/c1ccc(Cl)c(Cl)c1
f
NC(=S)NN=C1CCCCC1
f

Lab log: compare recorded growth with 60%; is it strictly lower for "COc1cc(OC)c(C(=O)/C=C/c2cccc(C(F)(F)F)c2)c(OC)c1" ?
t

State whether 60% exceeds growth recorded for "COc1ccc(C(=O)/C=C/c2cccc([N+](=O)[O-])c2)c(OC)c1" .
t

Hello, I'm reviewing records and need to know if growth of "CCN(CC)CCCNc1nc(C)cc(Nc2ccc3nc(C)cc(N)c3c2)n1" is below 60%. Could you check?
f

* * *

System: COLO 205 colon
Experiment: NCI-60 one-dose screen, 48 h (100 = growth as untreated, 0 = no growth, -100 = all killed)
Settings: 10 µM unless noted
The panel holds about 83,000 compounds, 20% with a hit somewhere; the sample as a whole holds those more often.
Classification field: enter y for growth values not below 30%, n for values below it.

Examples with answers:
COc1cc(NCCCN=C(N)NC(N)=NC(C)C)c2ncccc2c1
n
Cc1cccc(NC(=O)c2sc3nc4c(cc3c2N)CCCC4)c1
n
Cc1ccc2c(c1)C(C)Cc1c(ncnc1-n1cnc3ccccc31)N2C (stereo not given)
n
CCSc1nnc(NC(=O)Cc2ccc(Cl)cc2)s1
y
CCC(c1ccc(OC)cc1)C(CC)c1ccc(OCC[N+](C)(C)C)cc1 (stereo not given)
n

Check this compound for growth at or above 30%: "O=C(Nc1ccc(I)cc1)c1cc([N+](=O)[O-])ccc1O"
y

Would you say "Cc1ccc(-c2csc3nc(C)c(CCCl)c(=O)n23)cc1" shows growth at minimum 30%?
y

Textbook exercise: given the entry "O=P([O-])(O)OP(=O)([O-])O.[NH-][C@H]1CCCC[C@@H]1[NH-].[OH-].[OH-].[Pt+4]" , state whether its growth is greater than or equal to 30%.
y

// inclusive: growth at least 30%? input: COc1ccc(C2NC3=C(CCCC3)C(C#N)(C#N)C2(C#N)C#N)cc1 (stereo not given)
n

Hi team, for "COC1=CC(c2ccc[nH]2)=N/C1=C\c1[nH]c(C)c(C(=O)CCCCC(=O)Nc2ccccc2)c1C" , is the recorded growth at or above 30%?
y
